assay.system: GRK6, recombinant full-length GST-tagged human protein (Homo sapiens)
Construct: Enzyme: 20 nM GRK6, recombinant full-length GST-tagged human protein; GST
Sequence (P43250 whole entry): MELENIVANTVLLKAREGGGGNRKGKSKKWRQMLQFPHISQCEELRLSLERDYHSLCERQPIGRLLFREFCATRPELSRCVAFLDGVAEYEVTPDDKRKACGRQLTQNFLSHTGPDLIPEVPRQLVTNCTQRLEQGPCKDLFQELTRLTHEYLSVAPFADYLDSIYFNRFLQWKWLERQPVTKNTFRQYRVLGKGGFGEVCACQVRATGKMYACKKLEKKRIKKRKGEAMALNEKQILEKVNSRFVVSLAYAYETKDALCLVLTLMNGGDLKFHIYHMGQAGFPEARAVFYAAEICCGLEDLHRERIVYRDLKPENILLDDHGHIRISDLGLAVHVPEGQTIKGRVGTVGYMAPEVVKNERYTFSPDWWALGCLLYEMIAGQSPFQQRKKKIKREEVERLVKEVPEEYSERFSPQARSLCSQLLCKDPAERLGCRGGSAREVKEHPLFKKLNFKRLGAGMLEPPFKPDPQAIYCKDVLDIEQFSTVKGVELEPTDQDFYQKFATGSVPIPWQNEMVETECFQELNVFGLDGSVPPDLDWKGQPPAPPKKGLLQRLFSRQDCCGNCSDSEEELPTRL
measurement.notes: GRK6 assay, IC50 determination (8-point concentration-response)
Type: biochemical
conditions: Series 1 (Table 11); 20 nM GRK6, ATP 12 μM (Km), Peptide 216 1 μM, incubation 7 h
pIC50: −log10 of the molar value.
assay.readout: pIC50

INSERT INTO assay_data (molecule, assay_readout, recorded_measurement) VALUES
  ('O=C(O)CSc1nnc(-c2cc3ccccc3o2)[nH]1', 'pIC50', 5.80),
  ('O=C(O)CSc1nnc(-c2ccc(-c3ccccc3Cl)o2)[nH]1', 'pIC50', 5.84),
  ('CCOC(=O)c1ccc(-c2ccc(-c3nnc(SCC(=O)O)[nH]3)o2)cc1', 'pIC50', 5.99);

[1] O=C(O)CSc1nnc(-c2ccc(-c3ccc4occc4c3)o2)[nH]1
[2] O=C(O)CSc1nnc(-c2ccc(-c3ccc4c(c3)CCC(=O)N4)o2)[nH]1
For the pair 1 and 2 , which entry has the numerically smaller recorded pIC50? Refer to your chosen entry by its label in the reply.
2

These data points were gathered from patent US9902739B2.
